Tested on: HOP-62
experimentSummary: NCI tumour cell line growth inhibition, 48 h
Activity calls are given as the source filed them. Rule as the data show it: active = GI50 up to about 1.1 µM and inactive = higher.
valueType: GI50

Some solved entries appear below for comparison.
Cc1cc(Br)c(O)c(-c2cscn2)c1: 22.5 µM (inactive)
CCc1ccccc1NC(=O)C(=O)CC(=O)c1sc(Nc2ccccc2)nc1C: > 100 µM (inactive)
N#Cc1cccc(N2C(=O)c3c(c(-c4ccccc4)c(-c4ccc(Sc5ccc(-c6c(-c7ccccc7)c7c(c(-c8ccccc8)c6-c6ccccc6)C(=O)N(c6cccc(C#N)c6)C7=O)cc5)cc4)c(-c4ccccc4)c3-c3ccccc3)C2=O)c1: 89.3 µM (inactive)
N#Cc1ccccc1NC(=O)/C(=N\NC(=O)c1ccncc1)C(c1cnc2ccc([N+](=O)[O-])cc2n1)[N+](=O)[O-] (stereo not drawn): > 100 µM (inactive)
O=C(CCc1n[nH]c(=S)o1)Nc1ccccc1C(F)(F)F: > 100 µM (inactive)
O=[N+]([O-])c1ccc2c(c1)OCCOCCOc1ccc([N+](=O)[O-])cc1OCCOCCO2: > 100 µM (inactive)

Known value: HOP-62 GI50 of the molecule CCCCc1nc(C)oc1C(C)C equals > 100 µM (inactive)

Entry Cc1ccc(C(=C2Sc3ccccc3S2)C(=C2Sc3ccccc3S2)c2ccc(C)s2)s1 ; assay system HOP-62; GI50 recorded at > 100 µM (inactive)

---

Test system: OVCAR-8
experimentSummary: NCI tumour cell line growth inhibition, 48 h
Calls of active or inactive are those of the source. No stated cut-off is given here; in the data, active = GI50 up to about 1.1 µM and inactive = higher.
GI50: recorded values

CCc1ccc(Nc2cc(=O)[nH]c(=S)n2C)cc1: > 100 µM (inactive)

For record COC(=O)[C@H](Cc1c[nH]c2ccccc12)NP(=O)(OCCC#N)OCC1OC(n2cc(C)c(=O)[nH]c2=O)CC1N=[N+]=[N-] (some centres not stated) the listed GI50 is > 100 µM (inactive)

Lookup result for O=[N+]([O-])c1ccccc1CSc1nc(O)c2nc[nH]c2n1 ; measured GI50: > 100 µM (inactive)

Sample CC(=O)OCC1OC(O[C@@H]2C[C@H]3C(C)(C)[C@H](OC(C)=O)CC[C@]3(C)[C@H]3CC[C@@]45C[C@H](O)C[C@H](C)[C@@H]4CC=C5[C@@]32C)C(O)C(O)C1O (some centres not stated) ; GI50 observed: 4.83 µM (inactive)

Measured GI50, C=CC(Br)(CBr)CCC(Br)C(C)(C)Cl (configuration not stated) : 4.42 µM (inactive)

For reference, reported GI50 for Nc1cc2[nH]c(=O)c3cc(Cl)ccc3c2cc1Cl stands at 3 µM (inactive)

Entry CC(C)=C1C2CC3(C)CCC2(C)CCC13.CC1=CCC2C3(C)CCC2(C(C)C)C1C3 (configuration not stated) — recorded GI50 = 17.3 µM (inactive)

Just so you know, measured GI50 for Oc1ccccc1/C=N/Nc1nc(N/N=C/c2ccccc2O)nc(N/N=C/c2ccccc2O)n1 came out at > 100 µM (inactive)

Documented GI50 of COC(=O)c1cc(OC(C)=O)c2c(OC)ccc(OC)c2c1 : > 100 µM (inactive)

Reported GI50 of COP1(=O)CC2C(Cl)(Cl)C2(C)C1 (configuration not stated) : > 100 µM (inactive)

Briefly, GI50 measured for CC(C)C(Sc1nc(-c2ccccc2)c(-c2ccccc2)[nH]1)C(=O)NN (configuration not stated) : > 100 µM (inactive)

Note to self: GI50 recorded for C[Si](C)(C)OC1(C#N)c2ccccc2CCCC12CCCC2 (configuration not stated) was 50.9 µM (inactive)

Lab note: CC1=C[P+](Cc2ccccc2)(c2ccccc2)CC1 (configuration not stated) gave GI50 of > 100 µM (inactive)
